These entries and their values trace back to patent US11858894B2.

TEST: Stability confirmation test (impurity formation during storage under severe conditions, liquid chromatography)
Format: physicochemical
CONDITIONS: moisture-proof condition (60° C., less than 10% relative humidity), After 4 weeks
Listed below: Peak area of main component values for each entry.

{"MOLECULE SMILES": "CNCc1cn(S(=O)(=O)c2cccc(F)c2)c(-c2ccc(F)cc2F)c1OC.Cl", "UNITS LABEL": "%", "Peak area of main component": 99.80}
{"MOLECULE SMILES": "CNCc1cn(S(=O)(=O)c2cccc(F)c2)c(-c2ccc(F)cc2F)c1OC.O=C(O)/C=C/C(=O)O", "UNITS LABEL": "%", "Peak area of main component": 99.37}
{"MOLECULE SMILES": "CNCc1cn(S(=O)(=O)c2cccc(F)c2)c(-c2ccc(F)cc2F)c1OC.O=C(O)C(O)C(O)C(=O)O", "UNITS LABEL": "%", "Peak area of main component": 99.48}
{"MOLECULE SMILES": "CNCc1cn(S(=O)(=O)c2cccc(F)c2)c(-c2ccc(F)cc2F)c1OC.O=C(O)CCC(=O)O", "UNITS LABEL": "%", "Peak area of main component": 99.55}
